B1: Chromodomain-helicase-DNA-binding protein 5, residues 411 to 463; numbered along this chain, Q8TDI0 (parent)
chain: EEDDHMEFCRVCKDGGELLCCDACPSSYHLHCLNPPLPEIPNGEWLCPRCTCP

Variants of: B1
assay overview: abundance fitness (aPCA) (normalised: wild type 0, dead -1); higher = more abundant; growth selection in yeast, the domain comes from the species named
conditions used: Homo sapiens
test readout: abundance fitness
No unit in the answer, only the number.

INSERT INTO assay_data (variant_string, meas_value) VALUES
  ('P41V', 0.043);

## Input Quick check: abundance fitness of "H31C" ?
## Output -0.421

## Input And then "D22K" , what is it?
## Output 0.108

## Input Try this variant next: "S26W"
## Output -0.37

## Input What about this variant? "H29I"
## Output -1.2

## Input Proceed to "P41D"
## Output 0.246

## Input Again, but for "L33W"
## Output -0.594

## Input // repeat for "E39V" and report
## Output 0.025
